Target: T1, monovalent hVISTA-ECD (human VISTA extracellular domain with His tail) (human, UniProt Q9H7M9 33-193)
T1 construct: analyte flowed over captured antibody; also called huVISTA-His
T1 sequence (Q9H7M9 other isoform, or with tags, fused parts or gaps limits assumed): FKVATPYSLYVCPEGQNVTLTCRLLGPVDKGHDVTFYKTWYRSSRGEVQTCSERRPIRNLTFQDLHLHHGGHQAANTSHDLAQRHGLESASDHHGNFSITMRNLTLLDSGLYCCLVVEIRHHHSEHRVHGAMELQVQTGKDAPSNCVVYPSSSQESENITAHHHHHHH
Test: SPR
Quantity: pH 6.0/7.4 kd

binder="P1-061528 (41F11 NGS mut VK_A64G/R91A) (antibody, V domains shown, also called P1-061528-2) VH: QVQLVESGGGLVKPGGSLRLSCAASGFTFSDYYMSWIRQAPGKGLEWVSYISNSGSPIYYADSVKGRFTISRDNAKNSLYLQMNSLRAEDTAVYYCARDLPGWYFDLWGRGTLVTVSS VL: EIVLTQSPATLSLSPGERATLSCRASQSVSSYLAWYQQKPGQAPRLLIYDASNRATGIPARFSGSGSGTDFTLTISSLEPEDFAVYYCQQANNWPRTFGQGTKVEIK" reported_result=12
binder="P1-065333 (41F11_VH_T28P/Y50W/S55E/L96E/Y100E VK_A64G) (antibody, human IgG1, kappa, V domains shown, IgG1.3; also called P1-065333-1; VISTA.4 pH-independent progeny) VH: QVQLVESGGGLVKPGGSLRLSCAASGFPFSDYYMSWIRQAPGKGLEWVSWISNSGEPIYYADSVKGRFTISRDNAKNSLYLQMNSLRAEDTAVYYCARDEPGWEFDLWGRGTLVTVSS VL: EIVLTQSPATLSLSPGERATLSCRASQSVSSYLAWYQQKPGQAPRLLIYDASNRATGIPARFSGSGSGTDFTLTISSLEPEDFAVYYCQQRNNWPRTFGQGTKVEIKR" reported_result=1.4
binder="P1-064490 (41F11_VH_F27EY50EL96E) (antibody, V domains shown, Kabat positions; also called P1-064490-1; P1-064490-2) VH: QVQLVESGGGLVKPGGSLRLSCAASGETFSDYYMSWIRQAPGKGLEWVSEISNSGSPIYYADSVKGRFTISRDNAKNSLYLQMNSLRAEDTAVYYCARDEPGWYFDLWGRGTLVTVSS VL: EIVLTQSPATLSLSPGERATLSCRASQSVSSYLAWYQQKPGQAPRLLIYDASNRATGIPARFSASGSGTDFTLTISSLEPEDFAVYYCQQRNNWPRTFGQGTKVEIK" reported_result=4
